# Tested on: OVCAR-5 ovarian
# protocol notes: NCI tumour cell line growth inhibition, 48 h
Where a SMILES comes first, the peptide text is derived from it. The star is where a group is joined. Boc = CC(C)(C)OC(=O)*; OBn = c1ccc(CO*)cc1
Record form. Attribute: TGI. Fill in for each entry.

{"columns": ["compound", "subject of test", "measure", "endpoint value"],
 "data": [
  ["C=CCSC1=N/C(=C\\c2ccccc2)C(=O)N1CC=C", "OVCAR-5 ovarian", "TGI", "> 100 µM"],
  ["COc1ccc2c(c1)C(=O)/C(=C/c1ncc([N+](=O)[O-])n1C)O2", "OVCAR-5 ovarian", "TGI", "5.67 µM"],
  ["COc1cccc(Cc2c3cc(OC)ccc3cc[n+]2C)c1", "OVCAR-5 ovarian", "TGI", "> 100 µM"]
]}

Quick request: TGI for each listed item, please.
1. NC(N)=NNC(=O)CCCCCCCC(=O)NN=C(N)N
2. CCc1ccc2[nH]c(O)c(-c3[nH]c4ccccc4c3N=O)c2c1
3. C1OC1CO[C@@H]1CO[C@H]2[C@@H]1OC[C@H]2OCC1CO1 (stereo not given in full)
4. C=C1C(=O)O[C@H]2[C@H]1CC/C(COC(=O)NCCc1c[nH]c3ccc(OC)cc13)=C\CC[C@@]1(C)O[C@@H]21
5. CC(NC(=O)C(NC(=O)OC(C)(C)C)C(C)C)C(=O)N1CCCC1C(=O)NCC(=O)NC(C(=O)NCC(=O)OCc1ccccc1)C(C)C (stereo not given) (Boc-VAPGVG-OBn; configuration not given here)
6. COc1ccc2c(c1)n([O-])c(C#N)c(N1CCN(c3ccc([N+](=O)[O-])cc3)CC1)[n+]2=O

Result string:
1: > 100 µM; 2: 58.2 µM; 3: > 100 µM; 4: 4 µM; 5: > 100 µM; 6: > 100 µM

// provenance: PubChem BioAssay (NCI)
